Test details: Cytotoxicity against human HepG2(2.2.15) cells by MTT assay
Format: cell-based
Test context: HepG2(2.2.15) cells
Binary call on CC50 with cut-off 200 µM: strictly below means true (1), and equality or higher means false (0).

Answered examples (5):
[[record]]
molecule = "COC(=O)COCC(=O)O[C@H]1CC[C@@]2(C)C(=CC[C@]3(O)[C@@H]2C[C@@H](OC(=O)/C=C(\\C)C(C)C)[C@@]2(C)[C@]3(O)CC[C@@]2(O)C(C)=O)C1"
cat = "true (1)"

[[record]]
molecule = "CC(=O)[C@]1(O)CC[C@@]2(O)[C@]1(C)[C@H](OC(=O)/C=C(\\C)C(C)C)C[C@@H]1[C@@]3(C)CC[C@H](OC(=O)/C=C/n4ccnc4)CC3=CC[C@]12O"
cat = "false (0)"

[[record]]
molecule = "CC(=O)[C@]1(O)CC[C@@]2(O)[C@]1(C)[C@H](OC(=O)/C=C(\\C)C(C)C)C[C@@H]1[C@@]3(C)CCC(=O)CC3=CC(=O)[C@]12O"
cat = "true (1)"

[[record]]
molecule = "CC(=O)[C@]1(OC(=O)c2cccnc2)CC[C@@]2(O)[C@]1(C)[C@H](OC(=O)/C=C(\\C)C(C)C)C[C@@H]1[C@@]3(C)CC[C@H](OC(=O)c4cccnc4)CC3=CC[C@]12O"
cat = "false (0)"

[[record]]
molecule = "CC(=O)[C@]1(O)CC[C@@]2(O)[C@]1(C)[C@H](OC(=O)/C=C(\\C)C(C)C)C[C@@H]1[C@@]3(C)CC[C@H](OC(=O)COCC(=O)O)CC3=CC[C@]12O"
cat = "false (0)"


# check: CC50 < 200 µM for C[C@H](Cn1cnc2c(N)ncnc21)OCP(=O)(O)O [TENOFOVIR ANHYDROUS] false (0)

Item `COc1cc(C(=O)O[C@H]2CC[C@@]3(C)C(=CC[C@]4(O)[C@@H]3C[C@@H](OC(=O)/C=C(\C)C(C)C)[C@@]3(C)[C@]4(O)CC[C@@]3(O)C(C)=O)C2)on1` : CC50 beneath 200 µM, strictly? true (1)

Quick check: does `CC(=O)[C@]1(OC(=O)CCN2C(=O)c3ccccc3C2=O)CC[C@@]2(O)[C@]1(C)[C@H](OC(=O)/C=C(\C)C(C)C)C[C@@H]1[C@@]3(C)CC[C@H](OC(=O)CCN4C(=O)c5ccccc5C4=O)CC3=CC[C@]12O` have CC50 under 200 µM? false (0)

Check if CC50 falls below 200 µM for C/C(=C\C(=O)O[C@@H]1C[C@@H]2[C@@]3(C)CC[C@H](O)CC3=CC[C@@]2(O)[C@@]2(O)CC[C@@](O)(C(C)O)[C@@]12C)C(C)C (stereo partly specified) . false (0)

Is the reported CC50 for `CC(=O)[C@]1(O)CC[C@]23OC(C)(C)O[C@]24CC=C2C[C@@H](O)CC[C@]2(C)[C@H]4C[C@@H](OC(=O)/C=C(\C)C(C)C)[C@@]31C` strictly below 200 µM? false (0)

Does the reported CC50 of the following molecule sit strictly below 200 µM? `CC(=O)[C@]1(O)CC[C@@]2(O)[C@]1(C)[C@H](OC(=O)/C=C(\C)C(C)C)C[C@@H]1[C@@]3(C)CC[C@H](OC(=O)Cc4ccncc4)CC3=CC[C@]12O` true (1)
